System: CD8^+ T cells from HIV^+ subjects
experiment: FACS-based intracellular staining (ICS) for cytolysin (perforin) and cytotoxins (GrzA, GrzB) in CD8+ T cells
conditions: HIV-1 epitope peptide; HIV+ human subjects; threshold ≥0.2%
Residues, ends and D or L forms follow the SMILES beside them.
measurement.kind: CyCD8: CD8+ T-cell cytolysin/cytotoxins (perforin, GrzA & B), frequency of responders

molecule="CC[C@H](C)[C@H](NC(=O)[C@@H](N)CCCCN)C(=O)N[C@@H](CCCNC(=N)N)C(=O)N[C@@H](CC(C)C)C(=O)N[C@@H](CCCNC(=N)N)C(=O)N1CCC[C@H]1C(=O)NCC(=O)NCC(=O)N[C@@H](CCCCN)C(=O)N[C@@H](CCCCN)C(=O)N[C@@H](CCCCN)C(=O)N[C@@H](Cc1ccc(O)cc1)C(=O)O [HMA1]" recorded_value="− (0%-1.4% (−))"
molecule="CC(C)C[C@H](NC(=O)[C@H](C)NC(=O)[C@@H](N)CCC(=O)O)C(=O)N[C@@H](CC(C)C)C(=O)N[C@@H](CC(=O)O)C(=O)N[C@H](C(=O)NCC(=O)N[C@@H](C)C(=O)N[C@@H](CC(=O)O)C(=O)N[C@@H](CC(=O)O)C(=O)N[C@H](C(=O)N[C@H](C(=O)N[C@@H](CC(C)C)C(=O)N[C@@H](CCC(=O)O)C(=O)O)C(C)C)[C@@H](C)O)[C@@H](C)O [HPR2] (H-EALLDTGADDTVLE-OH; N-terminus and C-terminus assumed)" recorded_value="− (0%-1.4% (−))"
molecule="CC[C@H](C)[C@H](NC(=O)[C@H](CCCCN)NC(=O)[C@@H](NC(=O)[C@@H](NC(=O)[C@@H](NC(=O)[C@H](CC(C)C)NC(=O)[C@@H]1CCCN1C(=O)[C@H](CCCNC(=N)N)NC(=O)[C@H](CCC(N)=O)NC(=O)[C@H](Cc1c[nH]c2ccccc12)NC(=O)[C@H](CC(C)C)NC(=O)[C@@H](N)[C@@H](C)O)C(C)C)[C@@H](C)O)[C@@H](C)CC)C(=O)NCC(=O)NCC(=O)O [HPR1]" recorded_value="− (0%-1.4% (−))"
